assayMethodText: Cmax in dog
Format: ADME, Canis lupus familiaris
conditionLabel: in vivo
metricName: Cmax (µg/mL)

| smilesInput | metricName | unitDescriptor | recordedMeasurement |
| --- | --- | --- | --- |
| COc1cc(-c2ncc(COc3cccc([C@@H](CC(=O)O)C4CC4)c3)nc2CC(C)C)c(F)cn1 | Cmax | µg/mL | 1.55 |

---

assayMethodText: Protein binding in cynomolgus monkey plasma
Format: ADME, cell-free, Macaca fascicularis
conditionLabel: read-out: PPB (converted)

| smilesInput | fraction unbound |
| --- | --- |
| COc1cc(-c2ncc(COc3cccc([C@@H](CC(=O)O)C4CC4)c3)nc2CC(C)C)c(F)cn1 | 0.0009 |
